Test system: MTT (mouse pheochromocytoma)
assay.explanation: IC50 of cell viability (ATP content)
condition.set: (24 or 48 h)
Where a name gives a salt, the structure may show the parent alone.
observation.type: IC50 of cell viability

Cn1ccnc1S [Methimazole]
> 46 µM

Consider the molecule shown here: CC(C)(S)C(=O)N[C@H](CS)C(=O)O [Bucillamine] What is its recorded IC50 of cell viability? > 46 µM

Another molecule to check: CC1=C(/C=C/C(C)=C/C=C/C(C)=C/C(=O)Oc2c(C)c(C)c3c(c2C)CC[C@@](C)(CCC[C@H](C)CCC[C@H](C)CCCC(C)C)O3)C(C)(C)CCC1 [TOCORETINATE] > 46 µM

Another molecule to check: CCCCNC(=O)N[S+](=O)([O-])c1ccc(N)cc1 [Carbutamide] > 46 µM

Another molecule to check: CCOC(=O)c1ccccc1O [Ethyl salicylate] > 46 µM

Another molecule to check: N=C(N)c1ccc(OCCCOc2ccc(C(=N)N)cc2Br)c(Br)c1 [Dibromopropamidine Dihydrochloride] > 46 µM

Another molecule to check: O=C(/C=C/c1ccccc1)OCc1ccccc1 [BENZYL CINNAMATE] > 46 µM

Another molecule to check: CC(=O)Oc1c(C)cc(OCC(O)CNC(C)C)c(C)c1C (centres undefined) [Metipranolol] > 46 µM

Another molecule to check: [O-][n+]1cc[n+]([O-])c2ccccc21 [Quindoxin] > 46 µM

* * *

Test system: MTT (mouse pheochromocytoma)
assay.explanation: IC50 of cell viability (ATP content)
condition.set: (24 or 48 h)
Structures can show the parent of a compound that is named as a salt.
compounds and their reported IC50 of cell viability

// below: answered compounds
CC(C)C(=O)OCC(=O)[C@@]12OC(C3CCCCC3)O[C@@H]1CC1C3CCC4=CC(=O)C=C[C@]4(C)C3[C@@H](O)C[C@@]12C (stereo partly drawn) [CICLESONIDE]
> 46 µM
CN1CCC[C@H](CC2c3ccccc3Sc3ccccc32)C1 [Metixene hydrochloride]
> 46 µM
c1ccc2c(c1)Sc1ccccc1N2C[C@H]1CN2CCC1CC2 [Levomequitazine]
> 46 µM

Consider the compound shown here: COc1cc2nc(N(C)CCCNC(=O)[C@H]3CCCO3)nc(N)c2cc1OC [Alfuzosin hydrochloride] What is its recorded IC50 of cell viability? > 46 µM

Another compound to check: CCCC(O)C(CC)CO (stereo not drawn) [2-ETHYL-1,3-HEXANEDIOL] > 46 µM

Another compound to check: CC[C@H](c1ccccc1)c1noc(CCN(CC)CC)n1 [Proxazole citrate] > 46 µM

Another compound to check: CCCCCCCCCCCCCCCCOP(=O)([O-])OCC[N+](C)(C)C [MILTEFOSINE] > 46 µM

Another compound to check: CCON=C(CC)C/1=C(O)/CC(CC1=O)C2=C(C)C=C(C)C=C2C (stereo not drawn) [Tralkoxydim] > 46 µM

* * *

Tested on: MTT (mouse pheochromocytoma)
assay.explanation: IC50 of cell viability (ATP content)
condition.set: (24 or 48 h)
Counter-ions that a name gives are not always drawn.
compounds and their reported IC50 of cell viability

COc1ccc(C(=O)CC(=O)c2ccc(C(C)(C)C)cc2)cc1
> 46 µM
CCOc1ccc2nc3cc(N)ccc3c(N)c2c1
> 46 µM
Cc1c(C(N)=O)cc([N+](=O)[O-])cc1[N+](=O)[O-] [DINITOLMIDE]
> 46 µM
Clc1ccc([C@@H](OCCN2CCCCC2)c2ccccc2)cc1 [Cloperastine hydrochloride]
> 46 µM
CCC1(c2ccccc2)C(=O)NCNC1=O
> 46 µM

Consider the compound shown here: O=C(O)C(Cc1cc(I)c(O)c(I)c1)c1ccccc1 (stereo not drawn) What is its recorded IC50 of cell viability? > 46 µM

Another compound to check: CCOC(=O)[C@H](CCc1ccccc1)N[C@@H](C)C(=O)N1C(=O)N(C)C[C@H]1C(=O)O [IMIDAPRIL HYDROCHLORIDE] > 46 µM

Another compound to check: `CCCC(CCC)C(=O)O` > 46 µM

Another compound to check: `CN(C)C(=O)Nc1ccc(Cl)c(Cl)c1` > 46 µM

* * *

Test system: MTT (mouse pheochromocytoma)
assay.explanation: IC50 of cell viability (ATP content)
condition.set: (24 or 48 h)
Structures can show the parent of a compound that is named as a salt.
compounds and their reported IC50 of cell viability

// below: answered compounds
NNc1ccccc1 [PHENYLHYDRAZINE HYDROCHLORIDE]
> 46 µM
O=C(O)CNC(=O)CNC(=O)CNC(=O)CSC(=O)c1ccccc1 [BENZOYLMERCAPTOACETYLGLYCYLGLYCYLGLYCINE (Betiatide)]
> 46 µM
CO[C@@]1(NC(=O)Cc2cccs2)C(=O)N2C(C(=O)O)=C(COC(N)=O)CS[C@@H]21 [Cefoxitin sodium salt]
> 46 µM
[NH2][Pt]([NH2])([Cl])[Cl] [cis-Dichlorodiamine platinum]
> 46 µM
Cc1ccc(Cl)c(Nc2ccccc2C(=O)[O-])c1Cl.O.[Na+] [Meclofenamic acid sodium salt monohydrate]
> 46 µM

Now look at this entry.
Consider the compound shown here: CCCCCCCCCCCCCCCCC(C(=O)O)C(O)(CC(=O)O)C(=O)O (configuration not stated) What is its recorded IC50 of cell viability? > 46 µM

* * *

Tested on: MTT (mouse pheochromocytoma)
assay.explanation: IC50 of cell viability (ATP content)
condition.set: (24 or 48 h)
Where a name gives a salt, the structure may show the parent alone.
compounds and their reported IC50 of cell viability

CCNC(=O)/C=C/c1cccc(Br)c1
> 46 µM
CCN1\C=C(\C(O)=O)C(=O)C2=C1C=C3OCOC3=C2
> 46 µM
COC/1=C(/N2[C@H](SC1)[C@H](NC(=O)C(N)C/3\C=C/C/C=C3)C2=O)C(O)=O (stereo partly drawn)
> 46 µM
COc1ccc(CCN(C)CCCN2CCc3cc(OC)c(OC)cc3CC2=O)cc1OC
> 46 µM
CCC(C(=O)OCCOCCN(CC)CC)c1ccccc1 (stereo not drawn) [Butamirate citrate]
> 46 µM

Consider the compound shown here: `Cc1ccccc1N1C(=O)c2cc(N)ccc2N/C1=C\F` What is its recorded IC50 of cell viability? > 46 µM

Another compound to check: CN1c2c(O)nc(N)nc2NCC1CNc1ccc(C(=O)NC(CCC(=O)[O-])C(=O)[O-])cc1 (stereo not drawn) [5-METHYLTETRAHYDROFOLATE SODIUM SALT] > 46 µM

Another compound to check: O=C(NOCC(O)CO)c1ccc(F)c(F)c1Nc1ccc(I)cc1F (stereo not drawn) > 46 µM

* * *

compounds and their reported IC50 of cell viability
Test system: MTT (mouse pheochromocytoma)
assay.explanation: IC50 of cell viability (ATP content)
condition.set: (24 or 48 h)
Structures can show the parent of a compound that is named as a salt.

// below: answered compounds
CN1C[C@@H]2C[C@H]1CN2c1cc2c(cc1F)c(=O)c(C(=O)O)cn2C1CC1 [Danofloxacin mesylate]
> 46 µM
CCNC(C)Cc1cccc(C(F)(F)F)c1 (single isomer, unassigned; (-)) [(-)-Fenfluramine]
> 46 µM
CCOC(=S)SSC(=S)OCC [Dixanthogen]
> 46 µM
N[C@@H](Cc1cc(I)c(Oc2cc(I)c(O)c(I)c2)c(I)c1)C(=O)O [Levothyroxine]
> 46 µM
CCCCCCCCCCCCCCCC(=O)OCCC1CCN(CCCN2c3ccccc3Sc3ccc([S+](=O)([O-])N(C)C)cc32)CC1 [Pipothiazine palmitate]
> 46 µM
ClC(Cl)Cl [Chloroform]
> 46 µM
CC(NNC(=O)c1ccccc1)c1ccccc1 (stereo not drawn) [Benmoxin]
> 46 µM

Now look at this entry.
Consider the compound shown here: CNCCCC1C2=C(C=CC=C2)\C=C/C3=C1C=CC=C3 [Protriptyline hydrochloride] What is its recorded IC50 of cell viability? > 46 µM

* * *

System: MTT (mouse pheochromocytoma)
assay.explanation: efficacy (maximal response) relative to doxorubicin = -100% and DMSO = 0%; higher = less inhibition of viability
condition.set: (24 or 48 h)
molecules and their reported efficacy
Reply with a number, then the unit it belongs to.

// below: answered molecules
COc1ccc(CC(N)C(=O)NC2C(CO)OC(n3cnc4c(N(C)C)ncnc43)C2O)cc1.Cl.Cl (stereo not drawn) [PUROMYCIN HYDROCHLORIDE]
-63.1%
C[S+](CC[C@H](N)C(=O)O)C[C@H]1O[C@@H](n2cnc3c(N)ncnc32)[C@H](O)[C@@H]1O (stereo partly drawn)
-49.1%
COC/1=C/C=C2\C(=C/C1=O)[C@H](CCC3=CC(=C(OC)C(=C23)OC)OC)NC(C)=O
-84.8%
C[N+]1(CC2COC(c3ccccc3)(C3CCCCC3)O2)CCCCC1 (stereo not drawn) [OXAPIUM IODIDE]
-60.2%
CN/C(=N/C#N)NCCSCc1nc[nH]c1C
-40.4%

Consider the molecule shown here: `F\C1=C\NC(=O)NC1=O` What is its recorded efficacy? -67.4%

Another molecule to check: Cl.CCC1=C2CN3C(=O)\C4=C(/C=C3/C2=NC5=CC=C(OC(=O)N6CCC(CC6)N7CCCCC7)C=C15)[C@@](O)(CC)C(=O)OC4 [IRINOTECAN HYDROCHLORIDE] -66.8%

Another molecule to check: `C\N=C1/C=C\C(\C=C1)=C(/C2=CC=C(C=C2)N(C)C)C3=CC=C(C=C3)N(C)C` -70.3%
